Please provide measured IC50 for the entries that follow.
Biological target: JAK2 (Homo sapiens (Human), UniProt O60674)
Sequence (O60674 808-1132): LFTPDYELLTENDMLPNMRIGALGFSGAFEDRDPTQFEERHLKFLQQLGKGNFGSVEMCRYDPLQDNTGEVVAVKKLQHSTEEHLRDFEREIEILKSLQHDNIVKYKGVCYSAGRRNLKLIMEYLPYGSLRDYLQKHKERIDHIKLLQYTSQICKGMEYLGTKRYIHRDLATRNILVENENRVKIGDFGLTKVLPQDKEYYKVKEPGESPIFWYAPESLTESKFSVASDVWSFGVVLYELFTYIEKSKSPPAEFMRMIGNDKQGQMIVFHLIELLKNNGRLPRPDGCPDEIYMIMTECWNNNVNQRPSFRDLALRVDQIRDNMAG
Assay: JAK enzymatic assay (peptide mobility shift), JAK2
Details: recombinant JAK2 2 nM, JAKtide peptide, 150 minutes
Method: Recombinant JAK1 (Catalog Number PV4775), JAK2 (Catalog Number PV4210) and JAK3 (Catalog Number PV3855) were purchased from (Invitrogen Corporation, Madison, Wis.). […] A peptide mobility shift assay was used to quantify the phosphorylation of the JAKtide (JAK2 and JAK3) or the IRS-1 peptide (JAK1 and Tyk2). […] Data was analyzed using Hits Well Analyzer Software from (Caliper Life Sciences) to obtain the amount of product formed. […]
A number alone suffices; assume µM.

In: Field request: IC50 | item: CN(c1ncnc2[nH]ccc12)[C@H]1CC[C@H](CS(=O)(=O)N2CCC[C@@H](OP(=O)(O)O)C2)CC1 [Example 141]
Out: 0.000106

In: What about CCCS(=O)(=O)CC1CCCN(S(=O)(=O)C[C@H]2CC[C@H](N(C)c3ncnc4[nH]ccc34)CC2)C1 (stereo partly shown) [Example 17] ?
Out: 0.0547

In: What about Cc1ccc(CC2CCN(S(=O)(=O)C[C@H]3CC[C@H](N(C)c4ncnc5[nH]ccc45)CC3)CC2)nn1 [Example 48] ?
Out: 0.0849

In: What about CN(c1ncnc2[nH]ccc12)[C@H]1CC[C@H](CS(=O)(=O)N2C[C@@H](O)[C@H](O)C2)CC1 [Example 72] ?
Out: 0.0396

In: What about CN(c1ncnc2[nH]ccc12)[C@H]1CC[C@H](CS(=O)(=O)N2CC[C@@](O)(c3ccccc3)C2)CC1 [Example 91] ?
Out: 0.0108

In: What about CN(c1ncnc2[nH]ccc12)[C@H]1CC[C@H](CS(=O)(=O)N2CC(S(=O)(=O)c3ccccc3)C2)CC1 [Example 114] ?
Out: 0.0092

In: What about CCOCCO[C@@H]1CCN(S(=O)(=O)C[C@H]2CC[C@H](N(C)c3ncnc4[nH]ccc34)CC2)C1 [Example 28] ?
Out: 0.0168

###

Molecular target: JAK3 (Homo sapiens (Human), UniProt P52333)
Sequence (P52333 781-1124): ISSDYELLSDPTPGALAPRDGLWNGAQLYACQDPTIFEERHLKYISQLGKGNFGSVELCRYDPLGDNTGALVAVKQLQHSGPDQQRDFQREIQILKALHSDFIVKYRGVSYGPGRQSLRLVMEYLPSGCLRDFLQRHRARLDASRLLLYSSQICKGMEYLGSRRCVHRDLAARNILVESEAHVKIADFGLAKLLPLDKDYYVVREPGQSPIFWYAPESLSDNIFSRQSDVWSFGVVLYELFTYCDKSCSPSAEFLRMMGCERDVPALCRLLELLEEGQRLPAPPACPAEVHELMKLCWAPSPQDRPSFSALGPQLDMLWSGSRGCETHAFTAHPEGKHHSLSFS
Assay: JAK enzymatic assay (peptide mobility shift), JAK3
Conditions: recombinant JAK3 1 nM, JAKtide peptide, 90 minutes
Protocol: Recombinant JAK1 (Catalog Number PV4775), JAK2 (Catalog Number PV4210) and JAK3 (Catalog Number PV3855) were purchased from (Invitrogen Corporation, Madison, Wis.). […] Compounds were diluted serially in 100% dimethyl sulfoxide and tested in an 11 point dose response in duplicate or quadruplicate (200 nl of compound/DMSO was added per 10 L reaction). […] Data was analyzed using Hits Well Analyzer Software from (Caliper Life Sciences) to obtain the amount of product formed. […]
pIC50: −log10 of the molar value.
Binary classification by pIC50, with 7 as an inclusive lower bound for Satisfied; all other cases are Not satisfied.

In: Is pIC50 for CN(c1ncnc2[nH]ccc12)[C@H]1CC[C@H](CS(=O)(=O)N2CCCC3(CNC(=O)C3)C2)CC1 (stereo partly drawn) at or above 7?
Out: Not satisfied

In: What about `CN(c1ncnc2[nH]ccc12)[C@H]1CC[C@H](CS(=O)(=O)N2CCC[C@@H](OP(=O)(O)O)C2)CC1` ?
Out: Satisfied

In: What about `CCOP(=O)(OCC)O[C@@H]1CCCN(S(=O)(=O)C[C@H]2CC[C@H](N(C)c3ncnc4[nH]ccc34)CC2)C1` ?
Out: Satisfied

In: What about `CN(C(=O)OC(C)(C)C)[C@H]1CCN(S(=O)(=O)C[C@H]2CC[C@H](N(C)c3ncnc4[nH]ccc34)CC2)C1` ?
Out: Not satisfied

In: What about C[C@H]1CN(S(=O)(=O)C[C@H]2CC[C@H](N(C)c3ncnc4[nH]ccc34)CC2)C[C@@H]1CO [Example 135] ?
Out: Satisfied

In: What about `CN(c1ncnc2[nH]ccc12)[C@H]1CC[C@H](CS(=O)(=O)N2CCC(O)(c3ccccc3)CC2)CC1` ?
Out: Satisfied

In: What about `CN(c1ncnc2[nH]ccc12)[C@H]1CC[C@H](CS(=O)(=O)N2CC(O)C2)CC1` ?
Out: Not satisfied

In: What about `CN(c1ncnc2[nH]ccc12)[C@H]1CC[C@H](CS(=O)(=O)N2CC[C@H](F)C2)CC1` ?
Out: Not satisfied

In: What about CN(c1ncnc2[nH]ccc12)[C@H]1CC[C@H](CS(=O)(=O)N2CCC(C)(O)C2)CC1 (stereo partly drawn) ?
Out: Satisfied

In: What about `CN(c1ncnc2[nH]ccc12)[C@H]1CC[C@H](CS(=O)(=O)N2CC[C@H](Oc3ccccc3C#N)C2)CC1` ?
Out: Not satisfied

In: What about `CN(c1ncnc2[nH]ccc12)[C@H]1CC[C@H](CS(=O)(=O)N2CCS(=O)(=O)CC2)CC1` ?
Out: Not satisfied

###

Please provide measured pIC50 for the entries that follow.
target: JAK2 (Homo sapiens (Human), UniProt O60674); test: JAK enzymatic assay (peptide mobility shift), JAK2; settings: recombinant JAK2 2 nM, JAKtide peptide, 150 minutes
Please express pIC50 as -log10 of the molar concentration.

In: Field request: pIC50 | item: COC[C@@H]1CCN(S(=O)(=O)C[C@H]2CC[C@H](N(C)c3ncnc4[nH]ccc34)CC2)C1 [Example 73]
Out: 7.65

In: What about CN(c1ncnc2[nH]ccc12)[C@H]1CC[C@H](CS(=O)(=O)N2CC[C@@H](O)[C@H](O)C2)CC1 [Example 12] ?
Out: 7.93

In: What about CC(=O)NCC1CCCN(S(=O)(=O)C[C@H]2CC[C@H](N(C)c3ncnc4[nH]ccc34)CC2)C1 (stereo partly shown) [Example 20] ?
Out: 7.82

In: What about CN(c1ncnc2[nH]ccc12)[C@H]1CC[C@H](CS(=O)(=O)N2CCCC(OCC(N)=O)C2)CC1 (stereo partly shown) [Example 7] ?
Out: 7.74

###

Please provide measured IC50 for the entries that follow.
biological target: JAK2 (Homo sapiens (Human), UniProt O60674); assay: JAK enzymatic assay (peptide mobility shift), JAK2; details: recombinant JAK2 2 nM, JAKtide peptide, 150 minutes
Be sure to follow the number with its unit.

In: Field request: IC50 | item: `CN(c1ncnc2[nH]ccc12)[C@H]1CC[C@H](CS(=O)(=O)N2CC[C@H](S(=O)(=O)CCc3ccccc3)C2)CC1`
Out: 16.7 nM

In: What about `CN(c1ncnc2[nH]ccc12)[C@H]1CC[C@H](CS(=O)(=O)N2CCN(Cc3ccccn3)CC2)CC1` ?
Out: 49.8 nM

In: What about `CN(c1ncnc2[nH]ccc12)[C@H]1CC[C@H](CS(=O)(=O)N2CC[C@H](c3ncccn3)C2)CC1` ?
Out: 5.72 nM

In: What about `CN(c1ncnc2[nH]ccc12)[C@H]1CC[C@H](CS(=O)(=O)N2CCSC2)CC1` ?
Out: 29.5 nM

In: What about `CN(c1ncnc2[nH]ccc12)[C@H]1CC[C@H](CS(=O)(=O)N2CCC(COCC3CC3)CC2)CC1` ?
Out: 59.8 nM

In: What about `CN(c1ncnc2[nH]ccc12)[C@H]1CC[C@H](CS(=O)(=O)N2CCC[C@H](C#N)C2)CC1` ?
Out: 32.1 nM

In: What about `CCC1(C(N)=O)CCN(S(=O)(=O)C[C@H]2CC[C@H](N(C)c3ncnc4[nH]ccc34)CC2)CC1` ?
Out: 61.1 nM

In: What about CN(c1ncnc2[nH]ccc12)[C@H]1CC[C@H](CS(=O)(=O)N2CCCC(F)C2)CC1 (stereo partly drawn) ?
Out: 26.2 nM

In: What about `CNC(=O)C1CCN(S(=O)(=O)C[C@H]2CC[C@H](N(C)c3ncnc4[nH]ccc34)CC2)CC1` ?
Out: 44.9 nM

In: What about CN(c1ncnc2[nH]ccc12)[C@H]1CC[C@H](CS(=O)(=O)N2CCC[C@H](O)C2)CC1 [Example 14] ?
Out: 16.2 nM

In: What about `CN(c1ncnc2[nH]ccc12)[C@H]1CC[C@H](CS(=O)(=O)N2CC[C@H](S(=O)(=O)Cc3ccccc3)C2)CC1` ?
Out: 17.4 nM

In: What about `CN(c1ncnc2[nH]ccc12)[C@H]1CC[C@H](CS(=O)(=O)N2CCC[C@@](C)(CO)C2)CC1` ?
Out: 50.7 nM

In: What about `CN(c1ncnc2[nH]ccc12)[C@H]1CC[C@H](CS(=O)(=O)N2CC[C@@H](O)[C@@H](O)C2)CC1` ?
Out: 32 nM

In: What about `CN(c1ncnc2[nH]ccc12)[C@H]1CC[C@H](CS(=O)(=O)N2CC[C@@](O)(Cn3cccn3)C2)CC1` ?
Out: 9.3 nM

In: What about `CN(c1ncnc2[nH]ccc12)[C@H]1CC[C@H](CS(=O)(=O)N2CCC(C#N)CC2)CC1` ?
Out: 66.9 nM

In: What about `CN(c1ncnc2[nH]ccc12)[C@H]1CC[C@H](CS(=O)(=O)N2C[C@@H](F)[C@H](F)C2)CC1` ?
Out: 34.3 nM

In: What about `CCN(CC)C(=O)CO[C@@H]1CCN(S(=O)(=O)C[C@H]2CC[C@H](N(C)c3ncnc4[nH]ccc34)CC2)C1` ?
Out: 35.9 nM

In: What about `CN(c1ncnc2[nH]ccc12)[C@H]1CC[C@H](CS(=O)(=O)N2CCN(c3ncccc3C(=O)NC3CC3)CC2)CC1` ?
Out: 43.1 nM

In: What about `CCc1ccc(COC[C@H]2CCN(S(=O)(=O)C[C@H]3CC[C@H](N(C)c4ncnc5[nH]ccc45)CC3)C2)nc1` ?
Out: 63.6 nM

In: What about `CN(c1ncnc2[nH]ccc12)[C@H]1CC[C@H](CS(=O)(=O)N2CC[C@H](COCc3cccnc3)C2)CC1` ?
Out: 32.1 nM

In: What about `CN(c1ncnc2[nH]ccc12)[C@H]1CC[C@H](CS(=O)(=O)N2CCC2)CC1` ?
Out: 39.4 nM

In: What about `CN(c1ncnc2[nH]ccc12)[C@H]1CC[C@H](CS(=O)(=O)N2CC[C@H](Cc3ccccc3)C2)CC1` ?
Out: 65.4 nM

In: What about CN(c1ncnc2[nH]ccc12)[C@H]1CC[C@H](CS(=O)(=O)N2CCCC3(CNC(=O)C3)C2)CC1 (stereo partly drawn) ?
Out: 62.5 nM

In: What about `CN(C(=O)OC(C)(C)C)[C@H]1CCN(S(=O)(=O)C[C@H]2CC[C@H](N(C)c3ncnc4[nH]ccc34)CC2)C1` ?
Out: 81 nM

Every entry's value here was drawn from patent US8633206B2.
